ASSAY SYSTEM: human Nav1.8 (Homo sapiens, UniProt Q9Y5Y9)
Construct: expressed in transfected cells
Sequence (Q9Y5Y9 whole entry): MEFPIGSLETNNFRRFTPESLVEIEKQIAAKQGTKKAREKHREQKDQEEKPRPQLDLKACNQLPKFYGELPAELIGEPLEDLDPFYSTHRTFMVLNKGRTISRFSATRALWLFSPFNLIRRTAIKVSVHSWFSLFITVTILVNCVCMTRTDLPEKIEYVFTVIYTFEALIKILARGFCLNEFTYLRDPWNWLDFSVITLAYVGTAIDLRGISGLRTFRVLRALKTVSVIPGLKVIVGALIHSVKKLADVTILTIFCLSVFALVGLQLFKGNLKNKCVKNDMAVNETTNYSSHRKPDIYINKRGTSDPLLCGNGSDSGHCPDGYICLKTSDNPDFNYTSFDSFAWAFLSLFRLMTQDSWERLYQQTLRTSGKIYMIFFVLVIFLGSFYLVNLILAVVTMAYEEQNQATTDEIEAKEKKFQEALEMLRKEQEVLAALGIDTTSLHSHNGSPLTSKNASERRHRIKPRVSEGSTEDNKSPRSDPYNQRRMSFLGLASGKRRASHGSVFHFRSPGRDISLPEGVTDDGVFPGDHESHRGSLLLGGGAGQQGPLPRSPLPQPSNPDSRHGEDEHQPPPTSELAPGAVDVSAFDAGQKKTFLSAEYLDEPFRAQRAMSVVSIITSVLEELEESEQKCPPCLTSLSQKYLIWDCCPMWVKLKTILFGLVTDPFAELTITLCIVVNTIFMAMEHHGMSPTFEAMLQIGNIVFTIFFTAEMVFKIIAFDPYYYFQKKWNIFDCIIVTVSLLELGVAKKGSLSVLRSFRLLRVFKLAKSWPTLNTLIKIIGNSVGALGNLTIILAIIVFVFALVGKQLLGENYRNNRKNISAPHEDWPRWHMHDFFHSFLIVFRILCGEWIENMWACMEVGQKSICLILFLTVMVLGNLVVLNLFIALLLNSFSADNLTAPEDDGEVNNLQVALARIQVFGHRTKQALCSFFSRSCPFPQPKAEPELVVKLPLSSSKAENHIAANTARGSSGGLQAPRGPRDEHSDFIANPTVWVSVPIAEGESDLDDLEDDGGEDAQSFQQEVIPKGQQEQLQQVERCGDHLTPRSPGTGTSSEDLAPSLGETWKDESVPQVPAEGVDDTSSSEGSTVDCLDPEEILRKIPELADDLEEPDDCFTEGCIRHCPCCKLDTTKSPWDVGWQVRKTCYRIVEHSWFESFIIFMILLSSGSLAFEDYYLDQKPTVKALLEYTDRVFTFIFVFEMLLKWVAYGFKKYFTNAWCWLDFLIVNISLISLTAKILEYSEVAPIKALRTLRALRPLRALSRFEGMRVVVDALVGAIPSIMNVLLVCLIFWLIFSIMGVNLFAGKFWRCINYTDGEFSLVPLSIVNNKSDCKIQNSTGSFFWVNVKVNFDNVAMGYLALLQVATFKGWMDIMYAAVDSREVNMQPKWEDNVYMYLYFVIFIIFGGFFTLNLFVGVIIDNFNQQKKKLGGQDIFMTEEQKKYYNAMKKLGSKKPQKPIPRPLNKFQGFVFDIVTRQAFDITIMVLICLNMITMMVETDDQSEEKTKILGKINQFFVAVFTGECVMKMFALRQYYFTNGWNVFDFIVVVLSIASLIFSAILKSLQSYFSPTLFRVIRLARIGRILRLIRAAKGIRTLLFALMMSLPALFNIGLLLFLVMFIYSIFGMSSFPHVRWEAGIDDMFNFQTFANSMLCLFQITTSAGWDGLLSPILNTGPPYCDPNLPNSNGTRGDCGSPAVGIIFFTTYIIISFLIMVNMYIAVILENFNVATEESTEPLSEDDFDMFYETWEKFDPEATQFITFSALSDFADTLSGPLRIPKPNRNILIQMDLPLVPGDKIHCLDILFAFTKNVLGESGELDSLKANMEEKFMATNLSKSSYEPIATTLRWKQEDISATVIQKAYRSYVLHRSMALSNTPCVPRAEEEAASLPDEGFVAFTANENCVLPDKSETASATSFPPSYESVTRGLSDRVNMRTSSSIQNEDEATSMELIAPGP
ASSAY REMARKS: Qube® automated patch-clamp assay, Nav1.8
Type: cell-based
MEASUREMENT SETUP: human Nav1.8 stably expressed in HEK 293 cells; whole-cell voltage clamp, room temperature; read-out: IC50 values (nM) for Examples in the Nav1.8 Qube® Assay
ENDPOINT: IC50 (nM)

[a] CC1(C)CC(C(NC(=O)[C@@H]2CNC(=O)C2)c2ccc(F)c(Cl)c2F)C1 (single isomer, unassigned) [Example 21A]
[b] CC(C)c1ccc(C(NC(=O)[C@@H]2CNC(=O)C2)c2ccc(Cl)cc2)cc1 (stereo partly shown) [Example 4]
[c] O=C1C[C@H](C(=O)NC(c2ccc(Cl)cc2)c2ccc(Cl)c(C(F)(F)F)c2)CN1 (single isomer, unassigned) [Example 14A]
[d] O=C1C[C@H](C(=O)NC(c2ccc(F)c(Cl)c2)c2ccc(Cl)c(C(F)(F)F)n2)CN1 (single isomer, unassigned) [Example 20A]
Rank the items above by IC50, largest value first. When ranking, write the labels in the order the request describes.
a, b, d, c

[A] O=C1C[C@H](C(=O)NC(c2ccc(OC(F)(F)F)cc2)c2cccc(Cl)c2)CN1 (single isomer, unassigned) [Example 19B]
[B] CC1C(=O)NCC1C(=O)NC(c1ccc(Cl)cc1)c1ccc(Cl)cc1 (single isomer, unassigned) [Example 27A]
[C] O=C1C[C@H](C(=O)NC(c2ccc(Cl)cc2)c2ccc(OC(F)(F)F)cc2)CN1 (single isomer, unassigned) [Example 12B]
Hey, quick one: sort these by IC50, low to high? When ranking, write the labels in the order the request describes.
C, A, B
(C: 4.1 nM, A: 17 nM, B: 7460 nM)

###

ASSAY SYSTEM: human Nav1.8 (Homo sapiens, UniProt Q9Y5Y9)
Construct: expressed in transfected cells
ASSAY REMARKS: Qube® automated patch-clamp assay, Nav1.8
Format: cell-based
MEASUREMENT SETUP: human Nav1.8 stably expressed in HEK 293 cells; whole-cell voltage clamp, room temperature; read-out: IC50 values (nM) for Examples in the Nav1.8 Qube® Assay
ENDPOINT: IC50 (nM)

1. O=C1C[C@H](C(=O)NC(c2ccc(Cl)cc2)c2cc(F)cc(C(F)(F)F)c2)CN1 (stereo partly shown)
186
2. CC1C(=O)NCC1C(=O)NC(c1ccc(Cl)cc1)c1ccc(Cl)cc1 (single isomer, unassigned) [Example 27D]
7650
3. N#Cc1cccc(C(NC(=O)[C@@H]2CNC(=O)C2)c2cccc(Cl)c2)c1 (stereo partly shown)
820
4. O=C1C[C@H](C(=O)NC(c2ccc(Cl)cc2)c2ccc(F)c(C(F)(F)F)c2)CN1 (single isomer, unassigned) [Example 11A]
2.6
5. N#Cc1ccc(C(NC(=O)[C@@H]2CNC(=O)C2)c2ccc(F)c(Cl)c2)cc1 (single isomer, unassigned) [Example 13A]
139

[P] O=C1C[C@H](C(=O)NC(c2ccc(Cl)cc2)c2ccc(Cl)c(C(F)(F)F)c2)CN1 (single isomer, unassigned) [Example 14B]
[Q] N#Cc1ccc(C(NC(=O)[C@@H]2CNC(=O)C2)c2ccc(F)c(Cl)c2)cc1 (single isomer, unassigned) [Example 13B]
[R] O=C1C[C@H](C(=O)NC(c2ccc(F)c(Cl)c2F)[C@H]2C[C@H](C(F)(F)F)C2)CN1 (single isomer, unassigned)
Hey, quick one: sort these by IC50, low to high? When ranking, write the labels in the order the request describes.
P, R, Q

[a] O=C1C[C@H](C(=O)NC(c2ccc(OC(F)(F)F)cc2)c2cccc(Cl)c2)CN1 (single isomer, unassigned) [Example 19A]
[b] O=C1C[C@H](C(=O)NC(COc2ccccc2)c2ccc(F)c(C(F)(F)F)c2)CN1 (stereo partly shown)
[c] O=C1C[C@H](C(=O)NC(c2ccc(C(F)(F)F)cc2)c2ccc(F)c(Cl)c2)CN1 (single isomer, unassigned)
[d] CC1C(=O)NCC1C(=O)NC(c1ccc(Cl)cc1)c1ccc(Cl)cc1 (single isomer, unassigned) [Example 27C]
[e] O=C1C[C@H](C(=O)NC(c2ccc(F)c(C(F)(F)F)c2)c2ccc(F)c(Cl)c2F)CN1 (stereo partly shown)
Hey, quick one: sort these by IC50, low to high? When ranking, write the labels in the order the request describes.
e, c, a, b, d

[P] O=C1C[C@H](C(=O)NC(c2ccc(C(F)(F)F)cc2)c2cccc(C(F)(F)F)c2)CN1 (stereo partly shown)
[Q] O=C1C[C@H](C(=O)NC(c2ccc(Cl)cc2)c2ccc(F)c(Cl)c2)CN1 (mixture of isomers) [Example 1B]
Please tell me which of the two, P or Q , has the higher reported IC50 value. Identify your pick by its label.
P
